src = patent US20260001914A1

- study.target: KRAS-G12D protein (Homo sapiens, UniProt P01116, G12D)
- Sequence (P01116 1-188 isoform P01116-2 G12D): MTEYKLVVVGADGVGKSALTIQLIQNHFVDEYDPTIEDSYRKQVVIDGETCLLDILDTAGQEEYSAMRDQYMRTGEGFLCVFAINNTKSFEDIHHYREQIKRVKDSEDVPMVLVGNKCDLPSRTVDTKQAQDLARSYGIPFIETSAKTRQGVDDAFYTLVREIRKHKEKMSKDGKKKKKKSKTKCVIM
- experiment.notes: SOS-mediated nucleotide exchange assay (BODIPY-GDP / Tb-streptavidin TR-FRET)
- Assay type: biochemical
*1 amine or outer side, *2 acyl side, *3 side chain or, on linkers, in order; H or OH if unused. Where a SMILES comes first, the peptide text is derived from it. Bridges are numbered along the chain shown (N, C = ends). [ ]: non-standard residue; d: D form. Phe(4-F) = N[C@@H](Cc1ccc(F)cc1)C(=O)O; NHCH2CH2SCH2CO = O=C(CSCCN[*:1])[*:2]; Phe(2-F) = N[C@@H](Cc1ccccc1F)C(=O)O; NMe3Pal = CN[C@@H](Cc1cccnc1)C(=O)O; X1 = O=C(C12CC(CN[*:1])(C1)C2)[*:2]; NMeR = CN[C@@H](CCCNC(=N)N)C(=O)O; NMeF = CN[C@@H](Cc1ccccc1)C(=O)O; 3Pal = N[C@@H](Cc1cccnc1)C(=O)O; 4Pal = N[C@@H](Cc1ccncc1)C(=O)O; d3Pal = N[C@H](Cc1cccnc1)C(=O)O; NMeNle = CCCC[C@H](NC)C(=O)O; αMeC = C[C@](N)(CS)C(=O)O; Nle = CCCC[C@H](N)C(=O)O
I'd appreciate it if you could supply EC50 values for the items below.
The reply should read as a number followed by its unit.

## Task Given the entry CCCC[C@@H]1NC(=O)[C@H](Cc2ccncc2)NC(=O)[C@H](CCCNC(=N)N)NC(=O)[C@H](Cc2ccc(F)cc2)NC(=O)CSCCNC(=O)[C@H](Cc2ccccc2)N(C)C(=O)[C@H](CCCC)NC(=O)[C@H](Cc2ccc(OC)cc2)NC1=O [compound 90] (cyclo([4Pal][Nle]Y(Me)[Nle][NMeF][NHCH2CH2SCH2CO][Phe(4-F)]R)) , report its measured EC50.
## Result 432 nM

## Task Give the measured EC50 of CCCC[C@@H]1NC(=O)[C@H](Cc2ccccc2F)NC(=O)[C@H](CCCC)N(C)C(=O)[C@@H](Cc2cccnc2)NC(=O)[C@H](CCCNC(=N)N)N(C)C(=O)[C@H](Cc2ccccc2)NC(=O)C23CC(CNC(=O)[C@H](Cc4cccnc4)N(C)C1=O)(C2)C3 [compound 109] (cyclo(F[NMeR][d3Pal][NMeNle][Phe(2-F)][Nle][NMe3Pal][X1])) .
## Result 1200 nM

## Task For the molecule CCCC[C@@H]1NC(=O)[C@H](Cc2cccnc2)NC(=O)[C@H](CCCNC(=N)N)NC(=O)[C@H](Cc2ccccc2)NC(=O)CSC[C@@](C)(C(=O)O)NC(=O)[C@H](Cc2cccnc2)N(C)C(=O)[C@H](CCCC)NC(=O)[C@H](Cc2ccccc2F)NC1=O [compound 148] ({CH2CO}-FR[3Pal][Nle][Phe(2-F)][Nle][NMe3Pal][αMeC]-OH; thioether N-8) , what EC50 is on record?
## Result 370 nM
